Data provenance is patent US20170101466A1.

# System Tested: T1, soluble mouse BLyS (mouse, UniProt Q9WU72 127-309)
# T1 construct: europium-labelled in DELFIA; also called mBLyS; mouse BAFF (BLyS)
# Method Notes: Biacore T100, binder captured by anti-human Fc, BLyS injected, 1:1 model
Reported Property: koff

| Binder | Experimental Value |
| --- | --- |
| belimumab (antibody, V domains shown) VH: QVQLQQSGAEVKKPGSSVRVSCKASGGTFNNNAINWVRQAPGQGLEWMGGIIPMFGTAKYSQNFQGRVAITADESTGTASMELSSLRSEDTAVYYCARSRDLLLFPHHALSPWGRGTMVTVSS VL: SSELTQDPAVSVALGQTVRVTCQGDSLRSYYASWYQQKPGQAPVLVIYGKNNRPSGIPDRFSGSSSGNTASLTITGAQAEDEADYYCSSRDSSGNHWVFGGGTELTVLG | 0.000125 s⁻¹ |
| 5B7 IgG1 F243A/V264A double mutein expressed in Pichia pastoris (antibody, V domains shown, IgG1 F243A/V264A (EU) double mutein, alpha-2,6-sialylated, from glycoengineered Pichia pastoris; also called 5B7-DM; 5B7-DM Pichia) VH: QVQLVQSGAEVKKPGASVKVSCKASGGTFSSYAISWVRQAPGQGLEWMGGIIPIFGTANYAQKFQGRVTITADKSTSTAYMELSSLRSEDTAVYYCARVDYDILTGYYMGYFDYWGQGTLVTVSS VL: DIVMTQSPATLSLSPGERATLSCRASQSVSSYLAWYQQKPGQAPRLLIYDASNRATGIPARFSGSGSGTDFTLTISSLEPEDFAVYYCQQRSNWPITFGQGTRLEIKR | 0.000102 s⁻¹ |
| mouse TACI (R&D Systems receptor chimera) (receptor, UniProt Q9ET35 2-129, looked up, not shown: a dimerising Fc or GST, also called mTACI; TACI rec Mouse) AMAFCPKDQYWDSSRKSCVSCALTCSQRSQRTCTDFCKFINCRKEQGRYYDHLLGACVSCDSTCTQHPQQCAHFCEKRPRSQANLQPELGRPQAGEVEVRSDNSGRHQGSEHGPGLRLSSDQLTLYCT | 0.000121 s⁻¹ |
